We begin with a simple list: items and their reported pIC50.
# assayed-target: UniProt:P01375
# Sequence (P01375 77-233 limits assumed): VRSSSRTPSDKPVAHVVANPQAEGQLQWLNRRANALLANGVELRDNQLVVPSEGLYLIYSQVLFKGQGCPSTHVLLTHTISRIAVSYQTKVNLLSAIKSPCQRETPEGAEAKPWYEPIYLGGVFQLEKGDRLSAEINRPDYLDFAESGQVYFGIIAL
# assay: TNF induced HEK-Blue assay (NF-kB-driven secreted alkaline phosphatase reporter)
# Format: cell-based
# settings: TNFα 0.5 ng/mL, HEK-Blue-CD40L cells, 18 h; read-out: TNF induced HEK-Blue assay IC50 value
pIC50: −log10 of the molar value.
readout-label: pIC50

>  <molecule>
Cc1nc2ccc(-c3cnc(C(C)(C)O)nc3)cc2c(N[C@H](c2cc(C#N)ccc2F)C(F)F)c1Cl

>  <assayed-target>
UniProt:P01375

>  <result>
4.60 to 5.00

$$$$
>  <molecule>
CC(Nc1c(Cl)cnc2cc(F)c(-c3cnc(N4CCC(O)C4)cn3)cc12)c1ccccc1F (centres unmarked)

>  <assayed-target>
UniProt:P01375

>  <result>
5.00 to 6.00

$$$$
>  <molecule>
Cc1nc2ccc(C3C=NC(C(C)(C)O)=NC3)cc2c(N[C@H](C)c2cc(CO)ccc2F)c1Cl (some centres unmarked)

>  <assayed-target>
UniProt:P01375

>  <result>
> 6.00

$$$$
>  <molecule>
C[C@@H](Nc1c(Cl)cnc2ccccc12)c1cc(-c2ccncc2)ccc1F

>  <assayed-target>
UniProt:P01375

>  <result>
5.00 to 6.00

$$$$
>  <molecule>
Cc1ccc(C)c(Nc2c(C)c(O)nc3ccc(-c4cnc(C(C)(C)O)nc4)cc23)c1

>  <assayed-target>
UniProt:P01375

>  <result>
4.60 to 5.00

$$$$
>  <molecule>
CC(Nc1c(Cl)cnc2ccc(-c3cnc(C(C)(C)O)nc3)cc12)c1ncccc1F (racemic)

>  <assayed-target>
UniProt:P01375

>  <result>
> 6.00

$$$$
>  <molecule>
Cc1ccc(C)c(Nc2c(C)c(C)nc3ccc(-c4cnc(C(C)(C)O)nc4)cc23)c1

>  <assayed-target>
UniProt:P01375

>  <result>
> 6.00

$$$$
>  <molecule>
C[C@@H](Nc1c(Cl)cnc2ccc(-c3cnc(C4(O)CCC(=O)CC4)nc3)cc12)c1ccccc1F

>  <assayed-target>
UniProt:P01375

>  <result>
> 6.00

$$$$

====

# assayed-target: UniProt P01375
# assay: TNF induced HEK-Blue assay (NF-kB-driven secreted alkaline phosphatase reporter)
# Type: cell-based
# settings: TNFα 0.5 ng/mL, HEK-Blue-CD40L cells, 18 h; read-out: TNF induced HEK-Blue assay IC50 value
# Description: TNF or CD40L-Induced HEK-Blue Assay Test compounds serially diluted in DMSO were plated in an assay plate (LABCYTE, Cat. # LP-0200) at final concentrations ranging from 0.004 μM to 25 μM. […] Secreted alkaline phosphatase expression was measured using QUANTI-Blue™ (INVIVOGEN, Cat. Code rep-qb1) according to manufacturer's specifications and the assay plate was read on a PerkinElmer Envision at 620 nm. […]
pIC50: −log10 of the molar value.

>  <compound>
CC(C)(O)c1ccc(-c2ccc3ncc(Cl)c(NC(CCF)c4ccccc4F)c3c2)cc1 (racemic)

>  <assayed-target>
UniProt P01375

>  <pIC50>
> 6.00

$$$$
>  <compound>
Cc1ccc(F)c(C(C)Nc2c(Cl)cnc3ccc(-c4cnc(N5CCNC(=O)C5)nc4)cc23)n1 (centres unmarked)

>  <assayed-target>
UniProt P01375

>  <pIC50>
> 6.00

$$$$
>  <compound>
C[C@@H](Nc1c(Cl)cnc2ccc(-c3cnc(C(C)(C)O)nc3)cc12)c1cc(-c2ncn[nH]2)ccc1F

>  <assayed-target>
UniProt P01375

>  <pIC50>
> 6.00

$$$$
>  <compound>
Cc1ccc(-c2ccc(F)c([C@@H](C)Nc3c(Cl)cnc4ccccc34)c2)cn1

>  <assayed-target>
UniProt P01375

>  <pIC50>
> 6.00

$$$$
>  <compound>
CC(=O)NC[C@@H](C(=O)O)N1CCN(c2ncc(-c3ccc4ncc(Cl)c(N[C@H](C)c5ccccc5F)c4c3)cn2)CC1

>  <assayed-target>
UniProt P01375

>  <pIC50>
5.00 to 6.00

$$$$
>  <compound>
Cc1ccc(C)c(Nc2c(Cl)c(C)nc3ccc(-c4ccc(CN5CCN(C(=O)OC(C)(C)C)CC5)cc4)cc23)c1

>  <assayed-target>
UniProt P01375

>  <pIC50>
5.00 to 6.00

$$$$
>  <compound>
Cc1nc2ccc(-c3cnc(C(C)(C)O)nc3)cc2c(N[C@H](C)c2cc(OCCO)ccc2F)c1Cl

>  <assayed-target>
UniProt P01375

>  <pIC50>
> 6.00

$$$$
>  <compound>
C[C@@H](Nc1c(Cl)cnc2ccccc12)c1cc(-c2ccnnc2)ccc1F

>  <assayed-target>
UniProt P01375

>  <pIC50>
5.00 to 6.00

$$$$
>  <compound>
Cc1nc2ccc(-c3cnc(C(C)(C)O)nc3)cc2c(N[C@@H](c2cc(C(O)CO)ccc2F)C(F)F)c1Cl (mixture of isomers)

>  <assayed-target>
UniProt P01375

>  <pIC50>
> 6.00

$$$$
>  <compound>
O=C(O)CN1CCN(c2ncc(-c3ccc4ncc(Cl)c(N[C@@H](c5ccccc5F)C(F)F)c4c3)cn2)CC1=O

>  <assayed-target>
UniProt P01375

>  <pIC50>
> 6.00

$$$$
>  <compound>
Cc1nc2ccc(-c3cnc(N4CCN(CC(=O)O)CC4)nc3)cc2c(N[C@H](C)c2cc(-c3cn[nH]c3)ccc2F)c1Cl

>  <assayed-target>
UniProt P01375

>  <pIC50>
> 6.00

$$$$
>  <compound>
CCOC(=O)c1nc2ccc(-c3cnc(C(C)(C)O)nc3)cc2c(N[C@H](C)c2cc(C#N)ccc2F)c1Cl

>  <assayed-target>
UniProt P01375

>  <pIC50>
5.00 to 6.00

$$$$
>  <compound>
Cc1ccc(C)c(Nc2c(Cl)c(CN=[N+]=[N-])nc3ccc(-c4ccc(C#N)nc4)cc23)c1

>  <assayed-target>
UniProt P01375

>  <pIC50>
5.00 to 6.00

$$$$
>  <compound>
Cc1nc2ccc(-c3cnc(C(C)(C)O)nc3)cc2c(N[C@H](C)c2cc(C(N)=O)ccc2F)c1Cl

>  <assayed-target>
UniProt P01375

>  <pIC50>
> 6.00

$$$$

====

# assayed-target: UniProt P01375
# assay: TNF induced HEK-Blue assay (NF-kB-driven secreted alkaline phosphatase reporter)
# Type: cell-based
# settings: TNFα 0.5 ng/mL, HEK-Blue-CD40L cells, 18 h; read-out: TNF induced HEK-Blue assay IC50 value
readout-label: IC50

>  <compound>
CC(Nc1c(Cl)cnc2ccc(-c3cnc(C(C)(C)O)nc3)cc12)c1cc(F)ccc1F (racemic)

>  <readout-label>
IC50

>  <result>
< 1000 nM

$$$$
>  <compound>
Cc1ccnc(C(C)Nc2c(Cl)cnc3ccc(-c4ccc(C(C)(C)O)cc4)cc23)n1 (racemic)

>  <readout-label>
IC50

>  <result>
< 1000 nM

$$$$
>  <compound>
C[C@@H](Nc1c(Cl)cnc2ccc(-c3cnc(N4CCN(C5CCNC5=O)CC4)nc3)cc12)c1ccccc1F (mixture of isomers)

>  <readout-label>
IC50

>  <result>
< 1000 nM

$$$$
>  <compound>
C[C@@H](Nc1c(Cl)cnc2ccc(-c3ccc(N4CCO[C@@H](CO)C4)nc3)cc12)c1ccccc1F

>  <readout-label>
IC50

>  <result>
< 1000 nM

$$$$
>  <compound>
CC(Nc1c(Cl)cnc2cc(F)c(-c3cnc(N4C[C@H]5CC[C@@H](C4)C5C(=O)O)nc3)cc12)c1ccccc1F (single isomer, unassigned)

>  <readout-label>
IC50

>  <result>
< 1000 nM

$$$$
>  <compound>
C[C@H](Nc1c(Cl)cnc2ccc(-c3cnc(C(C)(C)O)nc3)cc12)[C@H]1CCCN(c2cncnc2)C1

>  <readout-label>
IC50

>  <result>
1000 to 10000 nM

$$$$
>  <compound>
C[C@@H](Nc1c(Cl)cnc2ccc(-c3cnc(C(C)(C)O)nc3)cc12)c1cc(C2NC(=O)NC2=O)ccc1F (single isomer, unassigned) [Example 423]

>  <readout-label>
IC50

>  <result>
< 1000 nM

$$$$
>  <compound>
C[C@@H](Nc1c(Cl)cnc2ccc(-c3cnc(C(C)(C)O)nc3)cc12)c1cc(-c2cnn(C)c2)ccc1F

>  <readout-label>
IC50

>  <result>
< 1000 nM

$$$$
>  <compound>
CCC(Nc1c(Cl)cnc2ccc(-c3cnc(C(C)(C)O)nc3)cc12)c1nc(C(O)CO)ccc1F (centres unmarked)

>  <readout-label>
IC50

>  <result>
< 1000 nM

$$$$
>  <compound>
Cc1nc2ccccc2c(N[C@H](C)c2cc(Br)ccc2F)c1Cl

>  <readout-label>
IC50

>  <result>
1000 to 10000 nM

$$$$
>  <compound>
C[C@@H](Nc1c(Cl)cnc2cc(F)c(-c3cnc(C(C)(C)O)nc3)nc12)c1cccc(CO)c1

>  <readout-label>
IC50

>  <result>
< 1000 nM

$$$$
>  <compound>
CC(Nc1c(Cl)cnc2ccc(-c3cnc(C(C)(C)O)nc3)cc12)[C@H]1CCCNC1 (single isomer, unassigned) [Example 96]

>  <readout-label>
IC50

>  <result>
10000 to 25000 nM

$$$$
>  <compound>
C[C@@H](Nc1c(Cl)cnc2ccc(-c3cnc(C(C)(C)O)nc3)cc12)c1cc(C(O)CO)ccc1F (mixture of isomers) [Example 398]

>  <readout-label>
IC50

>  <result>
< 1000 nM

$$$$
>  <compound>
Cc1ccc(C)c(Nc2c(Cl)c(CN)nc3ccc(-c4ccc(C#N)nc4)cc23)c1

>  <readout-label>
IC50

>  <result>
1000 to 10000 nM

$$$$
